Measured 3F8 Ortho Proliferation Signal 1:50 accompanies every entry in the list below.
Molecular target: T1, orthogonal hCD122 receptor (hoRb), hCD122 with H133D and Y134F (human, UniProt P14784 27-550)
T1 sequence: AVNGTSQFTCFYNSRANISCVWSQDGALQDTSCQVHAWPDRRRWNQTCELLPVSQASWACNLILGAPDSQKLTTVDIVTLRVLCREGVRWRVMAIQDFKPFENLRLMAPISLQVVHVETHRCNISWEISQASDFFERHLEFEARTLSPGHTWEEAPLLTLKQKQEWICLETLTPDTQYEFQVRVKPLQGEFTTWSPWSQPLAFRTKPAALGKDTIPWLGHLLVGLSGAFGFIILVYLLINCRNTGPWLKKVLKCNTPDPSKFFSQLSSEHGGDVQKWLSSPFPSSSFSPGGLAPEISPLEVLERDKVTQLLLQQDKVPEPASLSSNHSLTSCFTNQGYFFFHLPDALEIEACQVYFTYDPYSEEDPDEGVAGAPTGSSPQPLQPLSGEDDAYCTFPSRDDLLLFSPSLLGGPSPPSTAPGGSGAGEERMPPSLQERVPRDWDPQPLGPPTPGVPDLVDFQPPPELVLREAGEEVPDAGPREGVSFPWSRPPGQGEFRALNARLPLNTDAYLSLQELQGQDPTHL
Test: cell-based or functional assay
quantityKind: 3F8 Ortho Proliferation Signal 1:50

[
  {
    "binder": "SQVLKF (ligand) APTSSSTKKTQLQLSQLLVLLKFILNGINNYKNPKLTRMLTFKFYMPKKATELKHLQCLEEELKPLEEVLNLAQSKNFHLRPRDLISNINVIVLELKGSETTFMCEYADETATIVEFLNRWITFCQSIISTLT",
    "reportedMeasurement": "21000 cts/min"
  },
  {
    "binder": "T3Q, SQVLKA (ligand) APQSSSTKKTQLQLSQLLVLLKAILNGINNYKNPKLTRMLTFKFYMPKKATELKHLQCLEEELKPLEEVLNLAQSKNFHLRPRDLISNINVIVLELKGSETTFMCEYADETATIVEFLNRWITFCQSIISTLT",
    "reportedMeasurement": "14200 cts/min"
  },
  {
    "binder": "TQVLKA (ligand) APTSSSTKKTQLQLTQLLVLLKAILNGINNYKNPKLTRMLTFKFYMPKKATELKHLQCLEEELKPLEEVLNLAQSKNFHLRPRDLISNINVIVLELKGSETTFMCEYADETATIVEFLNRWITFCQSIISTLT",
    "reportedMeasurement": "17000 cts/min"
  },
  {
    "binder": "Q126G, SQVLKA (ligand) APTSSSTKKTQLQLSQLLVLLKAILNGINNYKNPKLTRMLTFKFYMPKKATELKHLQCLEEELKPLEEVLNLAQSKNFHLRPRDLISNINVIVLELKGSETTFMCEYADETATIVEFLNRWITFCGSIISTLT",
    "reportedMeasurement": "838 cts/min"
  }
]
